Origin of the recorded values: ChEMBL document CHEMBL1146526

assayComment: Cytotoxicity against african green monkey Vero cells after 24 hrs
Type: cell-based
details: chlorocebus sabaeus, read-out: ED50
propertyMeasured: CC50 at 24 h (µg/mL)
Give bare numbers, in µg/mL.

## Input For the molecule CCCCC[C@H](O)[C@@H](O)CCC[C@@H](O)[C@@H]1CC[C@@H](C2CC(O)[C@@H]([C@@H](O)CCCCCCCCCCCCC3=CC(C)OC3=O)O2)O1 (some centres not stated) [SALZMANOLIN] , give its measured CC50 at 24 h value.
## Output 0.01
